Tested on: guinea-pig pulmonary parenchyma
experiment.summary: L. Parenchyma: guinea-pig pulmonary parenchyma contraction antagonism induced by LTB4 (Sirois)
Assay type: cell-based
condition.label: Cavia porcellus; Table XIX; guinea-pig pulmonary parenchyma contraction induced by LTB4; read-out: IC50 L. Parenchyma
value.kind: IC50 (nM)
Response body: numeric value in nM, unit text excluded.

Lab book: IC50 of `CC(C)(CCCCOc1cc(-c2cccc(Cl)c2)cc(-c2ccccc2)n1)C(=O)O` noted as 1000

Recorded IC50 (compound `CC(C)(CCCCOc1cc(-c2ccccc2)cc(-c2ccccc2F)n1)C(=O)O` ): 80

Record `O=C(O)CCCCCOc1cc(-c2ccccc2)cc(-c2ccccc2)n1` , field IC50: 300

According to the records, this compound `CN(C)c1ccc(-c2cc(OCCCCCC(=O)O)nc(-c3ccccc3)c2)cc1` displays IC50 of 6000

IC50 reading for `CC(C)(CCCCOc1cc(-c2ccc(N)cc2)cc(-c2ccccc2)n1)C(=O)O` : 1

Notebook: CC(CCCCOc1cc(-c2ccc3c(c2)OCO3)cc(-c2ccccc2)n1)C(=O)O (stereo not drawn) , IC50 read as 2.5

The value of IC50 measured for the compound CC(CCCCOc1cc(-c2ccc(N)cc2)cc(-c2ccccc2)n1)C(=O)O (stereo not drawn) turned out to be 20

For record `O=C(O)c1ccc(COc2cc(-c3ccccc3)cc(-c3ccccc3)n2)cc1` the listed IC50 is 10000

The compound CC(CCCCOc1cc(-c2ccccc2)cc(-c2ccccc2F)n1)C(=O)O (stereo not drawn) showed IC50 equal to 6

Per the record, Cc1ccc(-c2cc(OCCCCC(C)C(=O)O)nc(-c3ccccc3)c2)cc1 (stereo not drawn) has IC50 of 20

Lab book: IC50 of `O=C(O)CCCCCOc1cc(-c2ccccc2)cc(-c2ccsc2)n1` noted as 1000

Entry `Nc1ccc(-c2cc(OCCCCCC(=O)O)nc(-c3ccccc3)c2)cc1` ; IC50 = 40

These entries and their values trace back to patent US5366982A.
